Recorded IC50 for molecules tested on JNK3 (Homo sapiens), drawn from a number of studies.

Smiles Repr: c1csc(-c2cnc3[nH]cc(-c4cncs4)c3c2)c1
IC50: < 0.5 µM
--
Smiles Repr: COc1ccc(F)c(C(=O)c2c[nH]c3ncc(-c4cccc(/C=C/C(=O)O)c4)cc23)c1
IC50: ≤ 10 µM
--
Smiles Repr: COc1ccc(F)c(C(=O)c2c[nH]c3ncc(-c4cccnc4)cc23)c1
IC50: ≤ 10 µM
--
Smiles Repr: O=C(CN1C(=O)CCc2cc(F)ccc21)Nc1scc(Br)c1-c1ncn[nH]1
IC50: < 0.1 µM
--
Smiles Repr: CCCCNC(=O)Nc1ccc(F)c(C(=O)c2c[nH]c3ncc(-c4cccnc4)cc23)c1
IC50: ≤ 10 µM

###

Recorded pIC50 for molecules tested on UniProtKB P53779, drawn from a number of studies.
pIC50: −log10 of the molar value.

Molecule: O=C(c1cnc2[nH]cc(-c3ccoc3)c2c1)N1CCCC1
pIC50: > 6.30

Molecule: CNC(=O)c1cc(-n2ncc3cc(Nc4c(Cl)cccc4OC)ncc32)cs1
pIC50: > 6.70

Molecule: CCCCCc1cnc2[nH]cc(-c3cnn(C)c3)c2c1
pIC50: > 6.70

Molecule: O=C(c1cc(O)ccc1F)c1c[nH]c2ncc(-c3ccsc3)cc12
pIC50: ≥ 5.00

Molecule: N#CCc1cnc(-c2ccc3c(c2)OCO3)n1-c1ccnc(NC2CCCNC2)n1 (stereo not drawn)
pIC50: < 7.00

Molecule: N#Cc1ccc2c(ccc(=O)n2CC(=O)Nc2scc(Cl)c2-c2nc[nH]n2)c1
pIC50: > 7.00

Molecule: O=C(Cc1cncc2ccccc12)Nc1scc(Br)c1-c1nnc[nH]1
pIC50: > 7.00

Molecule: CCCCNC(=O)n1ccc2c(C(=O)c3c[nH]c4ncc(-c5ccc(OC)nc5)cc34)cccc21
pIC50: ≥ 5.00

Molecule: Cn1cnc(-c2c(C#N)csc2NC(=O)Cc2cccc3ncccc23)n1
pIC50: > 7.00

Molecule: Cn1cc(-c2c[nH]c3ncc(C4CCC(C)(C)CC4)cc23)cn1
pIC50: 6.54

Molecule: CCN(CC)c1ccc(Nc2cnc3[nH]ccc3c2)cc1
pIC50: ≥ 5.00

Molecule: CC(C)Cc1cnc2[nH]cc(-c3csc(C(=O)N4CCOCC4)n3)c2c1
pIC50: > 6.70

Molecule: O=C(Cn1c(=O)ccc2ccc(F)cc21)Nc1scc(Br)c1-c1ncn[nH]1
pIC50: > 7.00

Molecule: CCCNc1nccc(-c2c(-c3ccc(F)cc3)nc3n2[C@@H](COc2ccc4ccccc4n2)CC3)n1
pIC50: 6.53

Molecule: Nc1cccc(-c2cnc3[nH]cc(C(=O)c4ccc(Cl)cc4)c3c2)c1
pIC50: ≥ 5.00

Molecule: c1ccc2sc(-c3cnc4[nH]ccc4c3)cc2c1
pIC50: ≥ 5.00

Molecule: COc1ccc(CC(=O)Nc2ccsc2-n2nccn2)cc1
pIC50: 5.00 to 7.00

Molecule: CN(C)c1ccc(-c2cnc3[nH]cc(-c4ccoc4)c3c2)cc1
pIC50: > 6.30

Molecule: COc1cccc(Cl)c1Nc1cc2cnn(-c3csc(C(=O)NC4COC4)c3)c2nc1C
pIC50: > 6.70

Molecule: Cc1nc(-c2c[nH]c3ncc([C@H]4CC[C@@H](N5CCOCC5)CC4)cc23)cs1
pIC50: < 5.70

Molecule: N#Cc1csc(NC(=O)CN2C(=O)CCc3ncccc32)c1-c1nc[nH]n1
pIC50: > 7.00

Molecule: O=C(Cn1c(=O)ccn2nc(C(F)(F)F)cc12)Nc1scc(Cl)c1-c1ncn[nH]1
pIC50: > 7.00

Molecule: Cn1cc(-c2n[nH]c3ncc(C4CCCCC4)cc23)cn1
pIC50: 5.77

Molecule: COC1=C(c2cnc3[nH]cc(-c4cnn(C)c4)c3c2)CCCC1
pIC50: 6.32

Molecule: CCC1CC=C(c2cnc3[nH]cc(-c4csc(C(=O)N5CCOCC5)n4)c3c2)CC1 (stereo not drawn)
pIC50: 6.35

Molecule: CNC(=O)c1cc(-n2ncc3cc(Nc4ccccc4Cl)c(C)nc32)cs1
pIC50: > 6.70

Molecule: O=C(Cn1c(=O)ccc2cnc(C(F)(F)F)cc21)Nc1scc(Br)c1-c1ncn[nH]1
pIC50: > 7.00

Molecule: CC(=O)c1cccc(-c2cnc3[nH]ccc3c2)c1
pIC50: ≥ 5.00

Molecule: O=C(Cc1cccc2cnccc12)Nc1scnc1-c1cscn1
pIC50: > 7.00

Molecule: Cc1ccc2[nH]nc3c2c1NC(=O)c1ccccc1-3
pIC50: ≥ 6.52

Molecule: O=C(c1cccc(O)c1F)c1c[nH]c2ncc(-c3ccccc3)cc12
pIC50: ≥ 5.00

Molecule: Cn1cc(-c2c[nH]c3ncc([C@]4(F)CC[C@@H](N5CCOCC5)CC4)cc23)cn1
pIC50: < 5.70

Molecule: Cn1cnc(-c2c(C#N)csc2NC(=O)CN2C(=O)CCc3ncccc32)n1
pIC50: > 7.00
